assay: qHTS assay for small molecule disruptors of the mitochondrial membrane potential (AID 720635); conditions: HepG2 mitochondrial membrane potential, Mito-MPS dye ratio; series mostly up to 83.2 µM
Results filed as inconclusive are left out. Calls of active or inactive are those of the source. The call rests on the fitted dose curve; in most records, active means well fitted inhibition curve with a large enough effect in the signal ratio in the repeat runs; inconclusive means weak or mixed curves, or effect the other way; inactive means flat fitted curve, though single readings scatter; the % refers to the signal ratio.
Hi! Could you answer with just one of these? yes (active), no (inactive)

Worked examples follow.
# Compound, Classification
measured = [
    ("O=C(Nc1ccccc1)N(Cc1ccc(Cl)cc1)C1CCCC1", "yes"),
    ("CC(C)NCC(O)c1ccc(N)c(C#N)c1 (configuration not stated)", "no"),
    ("CCN(Cc1ccc(Cl)nc1)/C(=C/[N+](=O)[O-])NC", "no"),
    ("COc1cc(OC)nc(NC(=O)NS(=O)(=O)c2ncccc2OCC(F)(F)F)n1", "no"),
    ("CN(C)CCc1ccc(O)cc1", "no"),
]

--- query ---
Ask | What was the test verdict on `CNCC(=O)c1ccc(O)c(O)c1` ?
Reply | no
